- Test system: Platelet
- protocol.summary: Inhibition of collagen-induced platelet aggregation in human platelet rich plasma preincubated for 10 mins
- Assay type: functional, cell-free
observable: IC50
State the value, then name its unit.

query: Could you tell me which IC50 is on file for OCCc1ccc(O)c(O)c1 [HYDROXYTYROSOL] ?
result: 67 µM

Values compiled from ChEMBL document CHEMBL3739422.
